Here the recorded Thermal Stability (°C) is given for each entry.
# Tested on: KRAS G13D
# Construct: GG-Hs.KRAS4b (2-188) G13D; His6-MBP (N, cleaved yes); made in house; host or cells: E. coli
# experiment notes: Protein-Probe thermal stability assay
# Type: binding, human
# measurement setup: Table S1; KRAS G13D 50 nM; EDTA 0.5 mM, MgCl2 1 mM, GDP 10 mM, GTP 10 µM as headed
Provide only the numeric value, understood in °C.

Below, 3 compounds whose answers are already recorded.
Nc1nc2c(ncn2[C@@H]2O[C@H](COP(=O)(O)OP(=O)(O)O)[C@@H](O)[C@H]2O)c(=O)[nH]1 [GDP, guanosine-5’-diphosphate] | 60.5
O=C(O)CN(CCN(CC(=O)O)CC(=O)O)CC(=O)O | 47.7
Nc1nc2c(ncn2[C@@H]2O[C@H](COP(=O)(O)OP(=O)(O)OP(=O)(O)O)[C@@H](O)[C@H]2O)c(=O)[nH]1 [GTP, guanosine-5’-triphosphate] | 60.8

From here, focus on the item given below.
Enquiry: For `[Cl-].[Cl-].[Mg+2]` , what is its reported Thermal Stability (°C)?
Return: 50.7

====

# assay target: KRAS WT (Homo sapiens)
# Construct: GG-Hs.KRAS4b (2-188), GG-Hs.KRAS4b (2-188) G12C; His6-MBP (N, cleaved yes)
# experiment notes: QRET nucleotide exchange assay, SOScat induced
# measurement setup: 100 nM KRAS WT, 10 nM SOScat, inhibitor preincubated with KRAS
metric name: IC50 (µM)
I only need the number, in µM, no unit after it.

Enquiry: // fetch KRAS WT (Homo sapiens) IC50 for Cn1cnc(Cn2ccc3ccc(CNCc4[nH]c5ccccc5c4[C@H]4NC(=O)c5ccc(O)cc54)cc32)c1 [BI-2852]
Return: 2.8

====

# assay target: KRAS WT (Homo sapiens, UniProt P01116)
# Construct: GG-Hs.KRAS4b (2-188), GG-Hs.KRAS4b (2-188) G12C; His6-MBP (N, cleaved yes)
# Sequence (P01116 2-188 isoform P01116-2): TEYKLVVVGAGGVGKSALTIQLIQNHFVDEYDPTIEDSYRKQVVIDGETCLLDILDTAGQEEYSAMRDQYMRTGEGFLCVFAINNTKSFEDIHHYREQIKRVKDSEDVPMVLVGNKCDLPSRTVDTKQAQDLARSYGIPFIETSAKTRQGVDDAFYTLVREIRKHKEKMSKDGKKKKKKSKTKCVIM
# experiment notes: QRET nucleotide exchange assay, SOScat induced
# measurement setup: nucleotide titration; 15 nM KRAS; SOScat 5 nM (Table S2), 10 nM (Fig. 3 legend)
Consider the cut-off 500 nM. If the recorded EC50 is strictly smaller, the label is t; if not, the label is f.

Nc1nc2c(ncn2[C@@H]2O[C@H](COP(=O)(O)O)[C@@H](O)[C@H]2O)c(=O)[nH]1 [GMP, guanosine-5’-monophosphate] | f
Nc1nc2c(ncn2[C@@H]2O[C@H](COP(=O)(O)OP(=O)(O)OP(O)(O)=S)[C@@H](O)[C@H]2O)c(=O)[nH]1 [GTPγS, guanosine-5’-(γ-thio)-triphosphate] | t

Enquiry: Could you please tell me whether EC50 recorded for Nc1nc2c(ncn2[C@@H]2O[C@H](COP(=O)(O)OP(=O)(O)OP(=O)(O)O)[C@@H](O)[C@H]2O)c(=O)[nH]1 [GTP, guanosine-5’-triphosphate] is less than 500 nM?
Return: t

Enquiry: One more compound: Nc1nc2c(ncn2[C@@H]2O[C@H](COP(=O)(O)OP(=O)(O)NP(=O)(O)O)[C@@H](O)[C@H]2O)c(=O)[nH]1 [GMP-PNP, guanosine-5’-[(β,γ)-imido]triphosphate]
Return: t

Enquiry: How about Nc1nc2c(ncn2[C@@H]2O[C@H](COP(=O)(O)OP(=O)(O)O)[C@@H](O)[C@H]2O)c(=O)[nH]1 [GDP, guanosine-5’-diphosphate] ?
Return: t

Enquiry: Also need Nc1nc2c(ncn2C2OC(COP(=O)(O)OP(=O)(O)CP(=O)(O)O)C(O)C2O)c(=O)[nH]1 (stereo not drawn) [GMP-PCP] , thanks.
Return: f

Source: paper PMC9266822
